ASSAY_NAME: ATG_XTT_Cytotoxicity: Cytotoxicity Assessment in the Attagene TRANS-FACTORIAL HepG2 Assay (AID 2283584)
Records with an inconclusive call do not appear. Calls of active or inactive are those of the source. How the source made its calls: active means hit-call score of the fitted dose curve at least 0.9, where 1 is the maximum; inconclusive means response in the unintended direction; inactive means score below 0.9.
Assign a class; possible classes are active, inactive

Study these solved cases before continuing.
CC(C)C(=O)Cl : inactive
Nc1cc(Cl)cc(Cl)c1 : inactive
CCCCOC(=O)CCC(=O)OCCCC : inactive

Now look at this one.
Q: // outcome(item) with item = `CCOP(=O)(OCC)Oc1ccc([N+](=O)[O-])cc1`
A: inactive

---

ASSAY_NAME: CCTE_Shafer_MEA_acute_burst_percentage_mean: CCTE's Neural Acute Assay for Percentage of Spikes in a Burst, Shafer Lab (AID 2284017)
Active and inactive are the calls of the source. The calls were made as follows: active = hit-call score of the fitted dose curve at least 0.9, where 1 is the maximum; inactive = score below 0.9.
Your reply should match one of these outcome classes. active, inactive

Below are worked cases with known answers.
[Cd+2].[Cl-].[Cl-] : inactive
Cc1ccc(OP(=O)(Oc2ccc(C)cc2)Oc2ccc(C)cc2)cc1 (tested in a mixture with another compound) : active
O=C(O)CNCP(=O)(O)O : inactive
CCCC[N+](CCCC)(CCCC)CCCC : active

Q: Tell me the assay call for `O=c1c2ccccc2c(=O)c2c1cc(Cl)c1[nH]c3c([nH]c12)c(Cl)cc1c(=O)c2ccccc2c(=O)c13` please.
A: active

Q: Which outcome was assigned to `CC1(C)[C@H](C(=O)O[C@H](C#N)c2cccc(Oc3ccccc3)c2)[C@@H]1C=C(Br)Br` in this test?
A: active

Q: Hi, sorry to bother you, what did the test record for `COc1ccc(CO)cc1` ?
A: active

Q: Please state the recorded outcome for this molecule: `CP(=O)(O)CC[C@H](N)C(=O)O`
A: inactive

Q: Tell me the recorded outcome of this test for CP(=O)(O)CCC(N)C(=O)O (centres undefined) .
A: inactive

Reference source for all entries: PubChem BioAssay (EPA / NIEHS)
